# experimental_target: proMMP9(67-444;ΔFnII) (SEQ ID NO:5) (Homo sapiens, UniProt P14780, DEL216-390)
# Construct: start methionine (N)
# Sequence (P14780 with tags, fused parts or gaps DEL216-390): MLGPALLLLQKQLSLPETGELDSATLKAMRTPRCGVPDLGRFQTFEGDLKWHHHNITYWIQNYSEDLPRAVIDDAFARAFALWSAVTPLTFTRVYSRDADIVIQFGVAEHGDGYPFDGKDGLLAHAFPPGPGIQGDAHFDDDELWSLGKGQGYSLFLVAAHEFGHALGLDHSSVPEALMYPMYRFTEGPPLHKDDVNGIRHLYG
# measurement_description: ThermoFluor binding assay with proMMP9(67-444;ΔFnII)
# assay_setup: pH 7.0
measurement_label: pKd
Friendly reminder that pKd comes from taking -log10 of the concentration in mol/L.

Field: example entries. Status: answers known.
Returns the measured pKd for the input compound. Input: `Cc1nc(CN2CCCN(C)CC2)sc1-c1csc(Nc2cc(C(N)=O)ccc2OC(C)C)n1`
5.33

Returns the measured pKd for the input compound. Input: `Cc1nc(C(=O)NC2CCN(C)CC2)sc1-c1csc(Nc2cc(C(N)=O)ccc2OC(C)C)n1`
5.72

---
Returns the measured pKd for the input compound. Input: `CCOc1ccc(C(=O)O)cc1Nc1nc(-c2sc(C)nc2C)cs1`
6.17

Returns the measured pKd for the input compound. Input: `COc1ccncc1Nc1nc(-c2sc(C)nc2C)cs1`
6.24

Value source: patent US20120129842A1
